Cited source: a protein production outcome set (Wang et al. 2014)

- PROCEDURE_DETAILS: label from the status in PepcDB records
PARAMETER_MEASURED: protein production

INSERT INTO results (construct_sequence, parameter_measured, experimental_result) VALUES
  ('MLMDGHTHTELCPHGSGEATEKMIQRAIQLGFQRYCITEHAPLPPAFRDQYEGTPAGYTEASLRENQVADYLALANGLKTKYAGQIEISVGFEVDFLPEHVAWTRDFLNTYGPRTQESILSVHFMRGLRQHFWCVDMSTDDFAAGFGQWLKTPQRVFEQYYQTVLASVQADLGPYAPQRIGHMSLVRKYQDYFGLTEPLDVHNLQLVDQTLALVKQQRRQLDLNLAGLYKPYCNDFYPGEQILQRAQKLDIPLVYGSDAHDIASVGRGYHLIKKLIEGLEHHHHHH', 'protein production', 'failed'),
  ('MGHHHHHHSHMAAAIASSLIRQKRQAREREKSNACKCVSSPSKGKTSCDKNKLNVFSRVKLFGSKKRRRRRPEPQLKGIVTKLYSRQGYHLQLQADGTIDGTKDEDSTYTLFNLIPVGLRVVAIQGVQTKLYLAMNSEGYLYTSELFTPECKFKESVFENYYVTYSSMIYRQQQSGRGWYLGLNKEGEIMKGNHVKKNKPAAHFLPKPLKVAMYKEPSLHDLTEFSRSGSGTPTKSRSVSGVLNGGKSMSHNEST', 'protein production', 'not failed'),
  ('MQVFIMRHGDAALDAASDSVRPLTTNGCDESRLMANWLKGQKVEIERVLVSPFLRAEQTLEEVGDCLNLPSSAEVLPELTPCGDVGLVSAYLQALTNEGVASVLVISHLPLVGYLVAELCPGETPPMFTTSAIASVTLDESGKGEFNWQMSPCNLKMAKAI', 'protein production', 'not failed'),
  ('MWLMSHDMLAIIWFGLWGVIWTVYFILDGYALGNGMIFPFVTKDRQERNQLQEAIGPFWGGNEVWLITAGGATFAAFPVTYANMFSYLYTPLFLVLLALFARAAGLEFMHKDDSPIWQKTCKWAFAIGSFLIAFLFGVTFANLYYGLQIGKNGYEGNLLSLLNHYGILGGLFFTAIFVVSGALWVMIKTTGEVSDRAYKIARPFSMAAAIILAIFYVATANRTNLFQNFTEYPVLFILPVLAMLMSVLALIMVYKHKIGLAFTFVCLTIAMFMTTGFAGMFPRMLPSRINDAYSTTLYNAAGSQLNLKIMFFVAMVMVPIVIGYQLWSYSIFKNKIHKDSAKGYH', 'protein production', 'failed'),
  ('NMRQVLKTDRLVLEPQSMARFDQWFAMERQRDEAGHRDLTEDQAWLRLCARQGMWDAYACGFYYLLDPVSGEMRGEAGFQFRRRGFGPGFDNHPEAAWAVASAHQGRGLAAEAMQALLAHHDRSSGRQRVVALIARSNLPSLRLAERLGFR', 'protein production', 'failed'),
  ('MNRLREALKERGITQTELSTRLGKSFNMVNLYVANKHQPSIPTLFQIAEILDMDVRDLLVSNKQQNK', 'protein production', 'failed'),
  ('MSKKIFAALIVAVVATFAGYNIYQSQRAEMEMSDLAMANIEALANDGESSTETTWSCKGTVGTCGAKCGLCGTTIPKSKGTLTGSHKCSM', 'protein production', 'failed');

----------
- PROCEDURE_DETAILS: label from the status in PepcDB records
PARAMETER_MEASURED: protein production

INSERT INTO assay_data (construct_sequence, experimental_result) VALUES
  ('MLQTINKTLGKIMPLLTPLSVVSGVLLADYLNGLASLVPWIFAFMTFAGSLGANFQSLKTAVAHPLPMFLALFVLHIFMPVLAWSTGHLVFSGDSLTITGLTLGVVIPTGITSMIWAAMYKGNIGLTLSIILVDTILSPFIVPFSLSILAGAHVEMDVIGMMKGLVGMIVIPSLLGMLVNQFSTPERTVRLSANCAPFSKVGLAAVVAINSSVVAPYLKNVDLKFLTIAVTVFLVAFTGYLTAWLIGRLMKRPQEEIVALIFTGGMRNISAGAVLATSFFPPQVAVPVVIGMLFQQILAALFGHLLARSELKKAHHLDKKTSLPS', 'failed'),
  ('AVPGEVRLQVKDLRSVGGSALNGVNMTLRAGQIYGIAGVGGNGQAELANALMGLPQATEGDIHLAPFGDLRNASAEQRRQLRIASIPADRYGAALAGSLSVAENFGIGNIHSGHYGSFWRLGYKRLKQDAQRAVESFDVQGVRSLDQKAALLSGGNAQKLVIAREFSRDPQLVLVHSPSRGLDVRATQAVHDRLRAARDAGAAVLLISEDLDEVLALADRIGVMNGGRIVAEFDHPADRQAIGKAMVSHD', 'failed');
